What YAP1 (% UTC) was measured for each of the following?
# System: Yap1 mRNA
# Assay explanation: Antisense inhibition of human Yap1 in A-431 cells by cEt gapmers, single dose (Example 4, RTS4814)
# Format: cell-based
# Assay context: Yap1 mRNA remaining as percent of untreated control; 3-10-3 cEt gapmers; A-431 cells; Table 37
Strand notation (5' to 3'): a small letter for the sugar, then the base; units joined by * are phosphorothioate-linked, units joined directly phosphodiester-linked; [ ] holds rarer units or linkages, { } end groups; capitals alone tell only the bases. k = constrained ethyl (cEt); [5mC] = 5-methylcytosine; d = 2'-deoxy (DNA)
Answers are plain numbers, in % UTC.

Substance	Unit tag	YAP1 (% UTC)
1075895 (antisense kA*k[5mC]*kT*d[5mC]*dG*dA*dA*dA*dG*d[5mC]*dT*dG*dG*kG*k[5mC]*k[5mC]) [compound 1075895]	% UTC	38

Parameter requested: YAP1 (% UTC). Apply to each item below.
1. 1075095 (k[5mC]*kT*kT*dG*dA*dA*dA*dA*d[5mC]*dA*dA*dG*d[5mC]*k[5mC]*kA*k[5mC]; antisense) [compound 1075095]
2. 1076311 (kT*kA*kT*dA*dA*d[5mC]*d[5mC]*d[5mC]*dT*dA*dT*dA*d[5mC]*kT*kT*kG; antisense) [compound 1076311]
3. 1075351 (antisense kA*kG*kA*dT*dT*dA*dA*dA*dG*d[5mC]*dT*d[5mC]*dA*kT*kT*kG) [compound 1075351]
4. 1075927 (antisense kG*k[5mC]*kT*dT*dA*dA*dA*dA*dT*d[5mC]*dA*dT*dG*kT*kA*kG) [compound 1075927]

[63, 56, 38, 32]

Parameter requested: YAP1 (% UTC). Apply to each item below.
1. 1074135 (k[5mC]*k[5mC]*kG*d[5mC]*dG*dG*d[5mC]*d[5mC]*d[5mC]*d[5mC]*dG*d[5mC]*dA*kT*k[5mC]*k[5mC]; antisense) [compound 1074135]
2. 1075159 (k[5mC]*kA*kA*dA*dA*dA*dA*dT*d[5mC]*dA*d[5mC]*dG*dG*k[5mC]*kA*kA; antisense) [compound 1075159]
3. 1075479 (kG*kA*k[5mC]*dA*dA*dT*dA*dA*dA*dT*d[5mC]*dT*dG*k[5mC]*k[5mC]*kT; antisense) [compound 1075479]
4. 1074903 (antisense k[5mC]*k[5mC]*kT*dA*dT*dT*dA*dA*d[5mC]*dT*dT*dT*dT*kG*kG*kG) [compound 1074903]

[91, 63, 77, 87]

Parameter requested: YAP1 (% UTC). Apply to each item below.
1. 1074583 (DNA kG*kT*kA*dA*dA*d[5mC]*d[5mC]*dA*d[5mC]*dT*dA*dT*dA*kA*kA*kG; antisense) [compound 1074583]
2. 1076087 (k[5mC]*kA*kA*dA*d[5mC]*dT*dA*dA*dT*dA*dG*dG*d[5mC]*k[5mC]*kA*kT; antisense) [compound 1076087]
3. 1074839 (kT*kA*kT*dA*dA*d[5mC]*dA*dA*d[5mC]*dA*dT*dG*d[5mC]*kT*kT*kG; antisense) [compound 1074839]

30
10
33
